Hi there, I'd appreciate the recorded T/C for every entry that follows.
System: P388 leukemia ip, CD2F1 mice, survival T/C
assay-notes: NCI In Vivo Anticancer Drug Screen. Data for tumor model P388 Leukemia (intraperitoneal) in CD2F1 (CDF1) mice
condition: endpoint: median survival time; dose: 60.0 mg/kg/injection; schedule: Q01DX005 (ip); vehicle: saline with Tween-80; higher = longer survival
Toxic doses and inconclusive results are not listed. Peptide text beside a SMILES is read from it.

[ask] What value of measured T/C is listed for COc1ccc(C(C)c2cc3c(cc2OCC(C)=O)OCO3)cc1 (configuration not stated) ?
[reply] 97 % of control

[ask] Same lookup for O=C(O)CC(Sc1ccc(Cl)cc1)C(=O)Nc1ccccc1 (configuration not stated) , please.
[reply] 99 % of control

[ask] Same lookup for OC1(O)CCC1(O)OCCBr (configuration not stated) , please.
[reply] 92 % of control

[ask] Same lookup for Cc1ccc(NC(=O)N(C)C)cc1NC(=O)N(C)C , please.
[reply] 100 % of control

[ask] Same lookup for CSc1nnc(CCC(=O)Nc2c(C)cccc2C(C)(C)C)o1 , please.
[reply] 104 % of control

[ask] Same lookup for Cc1c(O)ccc2c1OCC(c1ccc(Cl)cc1)C2 (configuration not stated) , please.
[reply] 104 % of control

[ask] Same lookup for COC(=O)C(CCCN=C(N)N)NC(=O)C(N)CCCCN (stereo not drawn) (H-Lys-Arg-OMe; configuration not given here) , please.
[reply] 100 % of control

[ask] Same lookup for Nc1c(Br)cc(Br)c2c1[nH]c(=O)c1ccccc12 , please.
[reply] 96 % of control

[ask] Same lookup for COC12CCCC3(OCCO3)C1C(Cl)C2Cl (configuration not stated) , please.
[reply] 98 % of control

[ask] Same lookup for O=S1(=O)c2ccccc2N(c2ccccc2)c2nnnn21 , please.
[reply] 88 % of control

[ask] Same lookup for Cc1ncc(C(=O)O)n1C(C)c1ccccc1 (configuration not stated) , please.
[reply] 108 % of control

[ask] Same lookup for N#Cc1ccc(OC(=O)Nc2ccccc2Cl)cc1 , please.
[reply] 94 % of control
